- Test system: Vero
- test_details: Selectivity ratio for IC50 of VERO cells to that of MIC of Mycobacterium tuberculosis H37Rv
- Assay type: functional, Chlorocebus sabaeus
Would you kindly list Selectivity for each of these compounds?
Numbers only.

1) CN(C)CCc1c2c(nc3ccccc13)C(=O)c1ccccc1C2=O : 4.5

// for each compound in input: emit Selectivity
1. CN(C)/C=C/c1c2c(nc3ccccc13)C(=O)c1ccccc1C2=O
2. CN(C)CCc1c2c(nc3ccccc13)C(=O)c1cccnc1C2=O
3. CN(C)/C=C/c1ccnc2c1C(=O)c1ccccc1C2=O

Reply |
1: 15.1; 2: 0.45; 3: 5.8

Ask | Requested read-out: Selectivity. Entry: CO[C@H]1/C=C/O[C@@]2(C)Oc3c(C)c(O)c4c(O)c(c(/C=N/N5CCN(C)CC5)c(O)c4c3C2=O)NC(=O)/C(C)=C\C=C\[C@H](C)[C@H](O)[C@@H](C)[C@@H](O)[C@@H](C)[C@H](OC(C)=O)[C@@H]1C [RIFAMPIN]
Reply | 400

Hey, just so you know, these numbers are from ChEMBL document CHEMBL1142818.
